Taken from patent US20110059095A1.

# study target: T1, Peptide A (human PAR-2), unbiotinylated (Human)
# T1 construct: also called Peptide A No Biotin
# T1 peptide: GTNRSSKGRSLIGKVDGT
# procedure summary: SPR, antibody captured
property label: Kd

H2M611N (antibody, V domains shown, chimeric: human variable, mouse constant domains) VH: EVQLLESGGGLVQPGGSLRLSCAASGFTFSSYAMTWVRQAPGKGLYWVSAISGSGGSAYYADSVKGRFTISRDNSKNTLYLQMNSLRAEDTAVYYCAKEGDSGYDLDYWGRGTLVTVSS VL: DIQMTQSPSSLSASVGDRVTITCRARQGISNYLAWLQQKPGKAPKSLIYAASSLQSGVPSKFSGSGSGTDFTLTISSLQPEDFATYYCQQYKSSPLTFGGGTKVEIK: 72.8 nM
H2M618N (antibody, V domains shown, chimeric: human variable, mouse constant domains) VH: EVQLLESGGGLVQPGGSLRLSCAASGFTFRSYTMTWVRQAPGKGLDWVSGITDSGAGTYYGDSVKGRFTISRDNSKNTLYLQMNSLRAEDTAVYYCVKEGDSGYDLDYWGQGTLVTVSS VL: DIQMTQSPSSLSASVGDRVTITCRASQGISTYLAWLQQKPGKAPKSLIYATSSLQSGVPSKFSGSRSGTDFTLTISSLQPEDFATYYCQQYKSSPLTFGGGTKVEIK: 9.62 nM

We now examine a further binder.
Respond only with Kd recorded for H4H578P (antibody, human IgG4, V domains shown, also called H1H578P variable regions) VH: QVQLVESGGGVVQPGMSLRLSCAASGFTFRRYGMHWVRQAPGKGLEWVAVIWYDGSNKYYVDSVKGRFTISRDNSKNTLYLQMNSLRAEDTAVYYCASEITVGDWFDPWGQGTLVTVSS VL: AIQMTQSPSSLSASVGDRVTITCRASQGIRNDLGWYQQKPGKAPKLLIYAASSLHSGVPSRFSGSGSGTDFTLTISSLQPEDFATYYCLQDFNYPLTFGGGTKVEIK 245 nM
